Biological target: BasE (Acinetobacter baumannii, UniProt A0A0D5YGP3)
Test: biochemical
Type: binding
Settings: KD (nM) BasE, FP displacement, 20 nM Fl-Sal-AMS 14, 200 nM BasE, pH 7.5, 25 °C
A collection of compounds and their measured Kd

A selection of reference data follows.
The compound Cc1ccc(-c2cc(C(=O)O)c3cnn(Cc4ccncc4)c3n2)s1 showed Kd equal to < 10 nM

The compound O=C(c1ccccc1)c1ccc(-c2cc(C(=O)O)c3cnn(Cc4ccncc4)c3n2)cc1 showed Kd equal to 19 nM

The compound O=C(O)c1cc(-c2cccc(Cl)c2)nc2c1cnn2Cc1ccncc1 showed Kd equal to < 10 nM

New cases:
The compound O=C(O)c1cc(-c2ccc(O)cc2)nc2c1cnn2Cc1ccncc1 showed Kd equal to < 10 nM
